Cited source: patent US6627648B1

assayed.system: CNS nicotinic receptors (Rattus norvegicus, UniProt P09483+P12390)
Sequence (P09483 31-630): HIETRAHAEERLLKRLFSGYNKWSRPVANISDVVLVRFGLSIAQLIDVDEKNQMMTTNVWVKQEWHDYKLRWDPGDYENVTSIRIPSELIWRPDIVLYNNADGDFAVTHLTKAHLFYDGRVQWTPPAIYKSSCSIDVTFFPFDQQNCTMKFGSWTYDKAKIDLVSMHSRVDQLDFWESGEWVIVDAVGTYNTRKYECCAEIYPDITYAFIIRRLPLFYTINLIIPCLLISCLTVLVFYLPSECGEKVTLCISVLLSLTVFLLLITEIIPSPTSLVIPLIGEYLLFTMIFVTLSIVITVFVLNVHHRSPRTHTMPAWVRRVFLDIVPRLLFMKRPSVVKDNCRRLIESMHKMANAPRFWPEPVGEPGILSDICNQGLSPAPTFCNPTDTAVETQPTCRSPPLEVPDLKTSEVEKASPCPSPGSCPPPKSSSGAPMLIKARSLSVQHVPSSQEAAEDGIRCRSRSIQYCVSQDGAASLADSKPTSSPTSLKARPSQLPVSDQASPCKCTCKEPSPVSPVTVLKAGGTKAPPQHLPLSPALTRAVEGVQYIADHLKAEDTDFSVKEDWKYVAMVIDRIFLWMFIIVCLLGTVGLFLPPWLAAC
Sequence (P12390 25-500): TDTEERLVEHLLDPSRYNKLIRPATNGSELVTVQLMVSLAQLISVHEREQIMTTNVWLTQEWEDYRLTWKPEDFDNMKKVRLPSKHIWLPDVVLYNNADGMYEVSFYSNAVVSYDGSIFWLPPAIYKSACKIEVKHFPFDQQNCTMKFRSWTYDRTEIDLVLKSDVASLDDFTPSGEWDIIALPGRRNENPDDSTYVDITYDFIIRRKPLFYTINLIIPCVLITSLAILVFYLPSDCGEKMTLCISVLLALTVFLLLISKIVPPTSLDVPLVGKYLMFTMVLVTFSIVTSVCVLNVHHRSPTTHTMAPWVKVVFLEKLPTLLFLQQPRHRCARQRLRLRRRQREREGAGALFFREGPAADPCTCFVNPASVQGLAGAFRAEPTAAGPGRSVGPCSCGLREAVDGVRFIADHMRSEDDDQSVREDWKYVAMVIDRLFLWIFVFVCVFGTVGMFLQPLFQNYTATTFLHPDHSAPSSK
assay.text: Determination of binding to relevant receptor sites
measurement.setup: inhibition constants calculated from IC50 values by the method of Cheng et al.
observation.type: Ki (µM)
// note: answer is a bare numeric in µM

Can you look up the measured Ki of CNCCCSc1cncc(Br)c1 [Example 6] for me?
40
